test system: Bacillus licheniformis; assay: Antimicrobial activity against Bacillus licheniformis DSM 13=ATCC 14580 after 48 hr by agar dilution method; format: functional; conditions: DSM 13 = ATCC 14580, 48 h
The following compounds are shown together with reported MIC values.

See these solved cases before continuing.
compound	MIC
C[C@H](CCC1(O)O[C@H]2C[C@H]3[C@@H]4CC[C@H]5C[C@@H](O[C@@H]6O[C@H](CO)[C@H](O[C@@H]7O[C@H](CO)[C@@H](O)[C@H](O[C@@H]8OC[C@@H](O)[C@H](O)[C@H]8O)[C@H]7O[C@@H]7O[C@H](CO)[C@@H](O)[C@H](O)[C@H]7O)[C@H](O)[C@H]6O)CC[C@]5(C)[C@H]4CC[C@]3(C)[C@H]2[C@@H]1C)CO[C@@H]1O[C@H](CO)[C@@H](O)[C@H](O)[C@H]1O (stereo partly drawn)	> 1000 µg/mL
C[C@H](CCC1(O)O[C@H]2C[C@H]3[C@@H]4CC[C@H]5C[C@@H](O[C@@H]6O[C@H](CO)[C@H](O[C@@H]7O[C@H](CO)[C@@H](O)[C@H](O[C@@H]8O[C@H](CO)[C@@H](O)[C@H](O)[C@H]8O)[C@H]7O[C@@H]7O[C@H](CO)[C@@H](O)[C@H](O[C@@H]8O[C@H](CO)[C@@H](O)[C@H](O)[C@H]8O)[C@H]7O)[C@H](O)[C@H]6O)CC[C@]5(C)[C@H]4CC[C@]3(C)[C@H]2[C@@H]1C)CO[C@@H]1O[C@H](CO)[C@@H](O)[C@H](O)[C@H]1O (stereo partly drawn) [CAPSICOSIDE G]	> 1000 µg/mL

Turning now to a further record.
Provide measured MIC on Bacillus licheniformis for COC1(CC[C@@H](C)CO[C@@H]2O[C@H](CO)[C@@H](O)[C@H](O)[C@H]2O)O[C@H]2C[C@H]3[C@@H]4CC[C@H]5C[C@@H](O[C@@H]6O[C@H](CO)[C@H](O[C@@H]7O[C@H](CO)[C@@H](O)[C@H](O[C@@H]8O[C@H](CO)[C@@H](O)[C@H](O)[C@H]8O)[C@H]7O[C@@H]7O[C@H](CO)[C@@H](O)[C@H](O[C@@H]8O[C@H](CO)[C@@H](O)[C@H](O)[C@H]8O)[C@H]7O)[C@H](O)[C@H]6O)[C@H](O)C[C@]5(C)[C@H]4CC[C@]3(C)[C@H]2[C@@H]1C (stereo partly drawn) [O-METHYLCAPSICOSIDE A] please.
> 1000 µg/mL

// provenance: ChEMBL document CHEMBL3044709
